We begin with a simple list: items and their reported melting point.

> print(dat)
                  compound.structure.string         result
1  O=C(NO)c1sc2c([N+](=O)[O-])cc(F)cc2[n+]1[O-]  224 to 225 °C
2  NC(=O)c1sc2c([N+](=O)[O-])cc(SC(F)(F)F)cc2[n+]1[O-]  255 to 256 °C
3  O=C(NO)c1sc2c([N+](=O)[O-])cc(C(F)(F)F)cc2[n+]1[O-]  230 to 231 °C

Now for the molecule whose melting point we want.
So for NNC(=O)c1sc2c([N+](=O)[O-])cc(C(F)(F)F)cc2[n+]1[O-] , the logged melting point turned out to be 229 to 230 °C

---

Test system: MCF-7
Assay: 72-h MTT cellular proliferation assay, MCF-7
Format: cell-based
Conditions: Homo sapiens, MCF7; MCF-7, 72 h; read-out: Anti-proliferative activity on tumour cell lines (MTT assay) MCF-7 IC50
Examples of compounds with documented IC50 follow.
Use µM as the unit, but write only the number.

N#Cc1sc2c([N+](=O)[O-])cc(C(F)(F)F)cc2[n+]1[O-] has a reported IC50 of 2.1

IC50 measured on O=C(NO)c1sc2c([N+](=O)[O-])cc(C(F)(F)F)cc2[n+]1[O-] = 9

The measured IC50 associated with NC(=O)c1sc2c([N+](=O)[O-])cc(F)cc2[n+]1[O-] reads 1.6

// sample NC(=O)c1sc2c([N+](=O)[O-])cc(SC(F)(F)F)cc2[n+]1[O-] , its IC50 was 2.5

// sample NNC(=O)c1sc2c([N+](=O)[O-])cc(C(F)(F)F)cc2[n+]1[O-] , its IC50 was 19

According to the records, this compound O=[N+]([O-])c1cc(C(F)(F)F)cc2c1sc(O)[n+]2[O-] displays IC50 of 35

Lookup result for NC(=O)c1sc2c([N+](=O)[O-])cc(C(F)(F)F)cc2[n+]1[O-] ; measured IC50: 12.6

Recorded result, N#Cc1cc([N+](=O)[O-])c2sc(C(N)=O)[n+]([O-])c2c1 , IC50: 2

Lab note: measured IC50 of O=C(NO)c1sc2c([N+](=O)[O-])cc(F)cc2[n+]1[O-] was 6.1

---

We begin with a simple list: items and their reported pIC50.
System: U2OS
Assay: 72-h MTT cellular proliferation assay, U2OS
Assay type: cell-based
Conditions: Homo sapiens, read-out: Anti-proliferative activity on tumour cell lines (MTT assay) U2OS IC50
Please report pIC50 as the negative decimal logarithm of the molar concentration, giving only the number.

Solved cases (5 shown):
> print(dat)
                                   compound  property  quantitative.readout
1  O=C(NO)c1sc2c([N+](=O)[O-])cc(F)cc2[n+]1[O-] [Compound 1g]     pIC50                  5.14
2  NC(=O)c1sc2c([N+](=O)[O-])cc(F)cc2[n+]1[O-] [Compound 1f]     pIC50                  4.94
3  NC(=O)c1sc2c([N+](=O)[O-])cc(SC(F)(F)F)cc2[n+]1[O-] [Compound 1j]     pIC50                  5.09
4  NC(=O)c1sc2c([N+](=O)[O-])cc(C(F)(F)F)cc2[n+]1[O-] [Compound 1a]     pIC50                  4.33
5  NNC(=O)c1sc2c([N+](=O)[O-])cc(C(F)(F)F)cc2[n+]1[O-] [Compound 1c]     pIC50                  4.46

Reported pIC50 of N#Cc1sc2c([N+](=O)[O-])cc(C(F)(F)F)cc2[n+]1[O-] [Compound 1h] : 5.02

Value of measured pIC50 for the entry O=C(NO)c1sc2c([N+](=O)[O-])cc(C(F)(F)F)cc2[n+]1[O-] [Compound 1e] : 4.53

O=[N+]([O-])c1cc(C(F)(F)F)cc2c1sc(O)[n+]2[O-] [Compound 1i] has a reported pIC50 of 4.06

Please fill in: pIC50 reported for O=C(c1sc2c([N+](=O)[O-])cc(C(F)(F)F)cc2[n+]1[O-])N1CCCC1 [Compound 1b] = 4.80

Lab note: measured pIC50 of N#Cc1cc([N+](=O)[O-])c2sc(C(N)=O)[n+]([O-])c2c1 [Compound 1d] was 5.17

Reference source for all entries: patent US20060040997A1
